B1: glmS ribozyme (parent)
chain: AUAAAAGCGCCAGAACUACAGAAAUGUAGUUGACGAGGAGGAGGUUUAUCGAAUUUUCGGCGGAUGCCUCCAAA

Variants of: B1
Test: kcat; higher = faster cleavage; RNA array
Conditions: with glucosamine-6-phosphate
This sample holds only a part of the variants without activity.
measured quantity: log10 kcat (log10 of the value in s⁻¹)
Recall that a logarithmic scale is used here: each number is log10 of kcat in s⁻¹.

Solved cases below.
{"entry sequence": "AUAAAAGCGCCAGAACUACAGAAAUGUAGUUGACGAGGAGGAGGUUUAUGGAAUUUUCGGCGGAUGCCUGCAAA [C50G C70G]", "measured quantity": "log10 kcat", "quantitative result": -3.99}
{"entry sequence": "AUAAAAGCGCCAGAACUAAAGAAAUGUAGUUGACGAGGAGGAGGUUUAUCGAAUUUUCGGCGGAUGCCUCCAAA [C19A]", "measured quantity": "log10 kcat", "quantitative result": -1.78}
{"entry sequence": "AUAAAAGCGCCAGAACUACAGAAAUGUAGUUGACGAGGAGGAGGUUUAUCGAAUUUAUGGCGGAUGCCUCCAAA [U57A C58U]", "measured quantity": "log10 kcat", "quantitative result": -4.19}
{"entry sequence": "AUAAAAGCGCCAGAACUACAGAAAUGUAGUUGACGAGGAGGAGGUUUAUCGAAUUUACGGCGGAUGGCUCCAAA [U57A C67G]", "measured quantity": "log10 kcat", "quantitative result": -4.23}
{"entry sequence": "AUAAAAGCGUCAGAACUACAGAAAUGUAGUUGACGAGGAGGAGGUUUAUCGAAUAUUCGGCGGAUGCCUCCAAA [C10U U55A]", "measured quantity": "log10 kcat", "quantitative result": -4.73}

Turning to the following variant.
Ask: Looking for the measured log10 kcat of AUAAAAGCGCCAGAACUACAGAAAUGUAGUUGACGAGGAGGAGGUUUAUCGAAUGUUCGGCGGAUGCCCCCAAA [U55G U69C] , can you help?
Reply: -3.48
